Target: T1, blood platelet receptor glycoprotein Ib-IX-V complex (GPIb) (human, UniProt P07359 17-652; P13224 26-206; P14770 17-177; P40197 17-560)
T1 construct: whole, on cells; also called GPIb complex; GPIb receptor
T1 sequence (P07359 17-652, chain 1 of 4): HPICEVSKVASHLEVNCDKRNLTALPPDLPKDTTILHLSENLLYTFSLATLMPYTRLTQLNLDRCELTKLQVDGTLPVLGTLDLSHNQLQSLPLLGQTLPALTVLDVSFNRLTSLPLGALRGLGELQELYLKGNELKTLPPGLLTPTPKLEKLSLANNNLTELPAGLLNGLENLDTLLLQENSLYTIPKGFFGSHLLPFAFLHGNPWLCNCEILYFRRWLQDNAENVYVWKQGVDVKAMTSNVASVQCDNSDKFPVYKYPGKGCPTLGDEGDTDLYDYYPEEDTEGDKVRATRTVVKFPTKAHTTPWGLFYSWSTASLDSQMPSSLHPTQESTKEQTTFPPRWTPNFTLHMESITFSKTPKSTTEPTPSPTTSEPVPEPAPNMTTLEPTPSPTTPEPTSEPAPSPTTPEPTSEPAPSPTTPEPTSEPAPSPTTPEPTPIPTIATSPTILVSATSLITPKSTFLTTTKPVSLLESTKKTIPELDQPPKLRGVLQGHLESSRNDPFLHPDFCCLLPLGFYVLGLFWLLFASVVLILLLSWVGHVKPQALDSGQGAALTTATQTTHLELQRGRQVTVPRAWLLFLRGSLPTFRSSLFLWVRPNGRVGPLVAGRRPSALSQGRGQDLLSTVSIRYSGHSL
T1 sequence (P13224 26-206, chain 2 of 4): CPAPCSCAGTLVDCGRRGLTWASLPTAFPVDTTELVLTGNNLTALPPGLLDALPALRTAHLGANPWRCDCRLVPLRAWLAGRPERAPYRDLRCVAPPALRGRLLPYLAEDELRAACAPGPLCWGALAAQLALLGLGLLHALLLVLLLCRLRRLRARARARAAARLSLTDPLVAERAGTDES
T1 sequence (P14770 17-177, chain 3 of 4): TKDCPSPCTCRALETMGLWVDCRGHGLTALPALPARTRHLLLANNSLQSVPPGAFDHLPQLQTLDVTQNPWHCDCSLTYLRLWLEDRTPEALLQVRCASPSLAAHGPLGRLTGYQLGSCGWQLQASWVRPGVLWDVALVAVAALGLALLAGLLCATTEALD
T1 sequence (P40197 17-560, chain 4 of 4): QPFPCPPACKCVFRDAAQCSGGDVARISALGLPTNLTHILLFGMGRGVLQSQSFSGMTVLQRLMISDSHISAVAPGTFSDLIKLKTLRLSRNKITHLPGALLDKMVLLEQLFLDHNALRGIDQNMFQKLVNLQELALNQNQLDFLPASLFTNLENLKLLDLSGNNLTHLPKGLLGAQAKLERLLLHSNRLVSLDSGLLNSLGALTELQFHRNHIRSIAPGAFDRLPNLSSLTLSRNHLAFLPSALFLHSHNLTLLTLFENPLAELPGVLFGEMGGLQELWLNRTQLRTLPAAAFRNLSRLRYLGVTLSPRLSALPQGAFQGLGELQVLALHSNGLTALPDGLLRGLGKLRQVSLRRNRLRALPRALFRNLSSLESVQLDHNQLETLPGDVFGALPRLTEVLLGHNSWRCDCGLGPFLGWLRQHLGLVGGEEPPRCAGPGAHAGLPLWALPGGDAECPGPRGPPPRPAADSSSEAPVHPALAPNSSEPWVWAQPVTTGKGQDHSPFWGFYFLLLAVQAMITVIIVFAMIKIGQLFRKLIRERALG
Test: inhibition of static adhesion of human platelets to coated vWF-A1; grade B = IC50 between 1 µM and 10 µM
pIC50: −log10 of the molar value. Starred links: 1 amine or outer side, 2 acyl side, 3 side chain; linkers in the order of their positions; H or OH if unused. Non-standard residues stand in square brackets, D forms with d. NH(CH2)9CO = O=C(CCCCCCCCCN[*:1])[*:2]; Ac6c = NC1(C(=O)O)CCCCC1; Dap = NC[C@H](N)C(=O)O; Ac3c = NC1(C(=O)O)CC1; Ahp = NCCCCCCC(=O)O; GABA = NCCCC(=O)O; βAla = NCCC(=O)O

binder	pIC50
cyclo([Ac6c]HNL[Ahp]TERMA) [Cyclo[Ac6-His-Asn-Leu-NH-(CH2)6-CO-Thr-Glu-Arg-Met-Ala]]	5.00 to 6.00
cyclo(LHNL[GABA][Ac3c]TERMA) (SMILES CSCC[C@@H]1NC(=O)[C@H](CCCNC(=N)N)NC(=O)[C@H](CCC(=O)O)NC(=O)[C@H]([C@@H](C)O)NC(=O)C2(CC2)NC(=O)CCCNC(=O)[C@H](CC(C)C)NC(=O)[C@H](CC(N)=O)NC(=O)[C@H](Cc2c[nH]cn2)NC(=O)[C@H](CC(C)C)NC(=O)[C@H](C)NC1=O) [Cyclo[Leu-His-Asn-Leu-NH-(CH2)3-CO-Ac3-Thr-Glu-Arg-Met-Ala]]	5.00 to 6.00
cyclo(LHNL[βAla]ATERMA) (SMILES CSCC[C@@H]1NC(=O)[C@H](CCCNC(=N)N)NC(=O)[C@H](CCC(=O)O)NC(=O)[C@H]([C@@H](C)O)NC(=O)[C@H](C)NC(=O)CCNC(=O)[C@H](CC(C)C)NC(=O)[C@H](CC(N)=O)NC(=O)[C@H](Cc2c[nH]cn2)NC(=O)[C@H](CC(C)C)NC(=O)[C@H](C)NC1=O) [Cyclo[Leu-His-Asn-Leu-NH-(CH2)2-CO-Ala-Thr-Glu-Arg-Met-Ala]]	5.00 to 6.00
cyclo(LHNL[Ahp]SERMA) (SMILES CSCC[C@@H]1NC(=O)[C@H](CCCNC(=N)N)NC(=O)[C@H](CCC(=O)O)NC(=O)[C@H](CO)NC(=O)CCCCCCNC(=O)[C@H](CC(C)C)NC(=O)[C@H](CC(N)=O)NC(=O)[C@H](Cc2c[nH]cn2)NC(=O)[C@H](CC(C)C)NC(=O)[C@H](C)NC1=O) [Cyclo[Leu-His-Asn-Leu-NH-(CH2)6-CO-Ser-Glu-Arg-Met-Ala]]	5.00 to 6.00
cyclo(LHNL[NH(CH2)9CO]TERMA) (SMILES CSCC[C@@H]1NC(=O)[C@H](CCCNC(=N)N)NC(=O)[C@H](CCC(=O)O)NC(=O)[C@H]([C@@H](C)O)NC(=O)CCCCCCCCCNC(=O)[C@H](CC(C)C)NC(=O)[C@H](CC(N)=O)NC(=O)[C@H](Cc2c[nH]cn2)NC(=O)[C@H](CC(C)C)NC(=O)[C@H](C)NC1=O) [Cyclo[Leu-His-Asn-Leu-NH-(CH2)9-CO-Thr-Glu-Arg-Met-Ala]]	5.00 to 6.00
cyclo(LHNL[Ahp]TE[Dap]MA) (SMILES CSCC[C@@H]1NC(=O)[C@H](CN)NC(=O)[C@H](CCC(=O)O)NC(=O)[C@H]([C@@H](C)O)NC(=O)CCCCCCNC(=O)[C@H](CC(C)C)NC(=O)[C@H](CC(N)=O)NC(=O)[C@H](Cc2c[nH]cn2)NC(=O)[C@H](CC(C)C)NC(=O)[C@H](C)NC1=O) [Cyclo[Leu-His-Asn-Leu-NH-(CH2)6-CO-Thr-Glu-Dpr-Met-Ala]]	5.00 to 6.00
